Source of measurements: patent US20210032365A1

system.under.test: T1, human C1s (human, UniProt P09871 16-688)
T1 construct: also called hC1s; serum-derived human C1s (CompTech)
T1 sequence: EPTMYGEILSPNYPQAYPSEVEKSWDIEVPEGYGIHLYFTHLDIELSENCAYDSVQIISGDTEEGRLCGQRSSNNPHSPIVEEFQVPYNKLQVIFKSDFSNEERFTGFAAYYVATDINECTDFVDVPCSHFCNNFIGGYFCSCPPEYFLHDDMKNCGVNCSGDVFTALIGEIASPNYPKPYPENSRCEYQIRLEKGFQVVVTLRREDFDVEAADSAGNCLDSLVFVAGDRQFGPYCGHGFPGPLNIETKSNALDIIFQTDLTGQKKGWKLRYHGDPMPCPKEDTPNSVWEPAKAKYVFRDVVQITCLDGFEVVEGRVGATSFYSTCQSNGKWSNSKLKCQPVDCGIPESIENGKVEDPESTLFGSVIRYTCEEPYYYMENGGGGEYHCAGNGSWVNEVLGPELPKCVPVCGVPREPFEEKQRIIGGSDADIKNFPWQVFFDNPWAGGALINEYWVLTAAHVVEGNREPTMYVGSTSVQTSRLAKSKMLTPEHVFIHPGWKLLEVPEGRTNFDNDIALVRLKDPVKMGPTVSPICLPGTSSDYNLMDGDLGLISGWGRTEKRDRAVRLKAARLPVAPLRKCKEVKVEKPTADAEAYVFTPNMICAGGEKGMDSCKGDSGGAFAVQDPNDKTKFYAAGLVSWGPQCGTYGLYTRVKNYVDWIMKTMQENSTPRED
protocol.description: SPR, Ab captured; pH 5.8, 1.2 mM Ca
readout.type: koff (s⁻¹)
Number in s⁻¹, nothing else.

A selection of reference data follows.
C1_IPN92H0038-SG4GK/IPN93L0029-SK1 (antibody, human IgG4 S228P, kappa, name in Kabat numbering, V domains shown, also called IPN92H0038/IPN93L0029) VH: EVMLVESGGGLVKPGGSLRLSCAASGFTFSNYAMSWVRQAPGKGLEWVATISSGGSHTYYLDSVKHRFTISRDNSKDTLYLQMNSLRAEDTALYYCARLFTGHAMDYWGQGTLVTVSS VL: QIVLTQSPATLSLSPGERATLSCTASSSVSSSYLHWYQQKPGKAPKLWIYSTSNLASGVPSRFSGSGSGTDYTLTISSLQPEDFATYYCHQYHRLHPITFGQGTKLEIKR	0.0131
C1_IPN92H0026-SG4GK/IPN93L0030-SK1 (antibody, human IgG4 S228P, kappa, name in Kabat numbering, V domains shown, also called IPN92H0026/IPN93L0030) VH: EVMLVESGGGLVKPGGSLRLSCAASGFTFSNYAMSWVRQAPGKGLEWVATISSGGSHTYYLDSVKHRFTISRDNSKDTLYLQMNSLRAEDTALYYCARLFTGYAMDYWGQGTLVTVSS VL: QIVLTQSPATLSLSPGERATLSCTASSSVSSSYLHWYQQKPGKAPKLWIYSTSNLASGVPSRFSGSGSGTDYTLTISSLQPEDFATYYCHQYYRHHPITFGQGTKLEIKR	0.0592
C1_IPN92H0033-SG4GK/IPN93L0031-SK1 (antibody, human IgG4 S228P, kappa, name in Kabat numbering, V domains shown, also called IPN92H0033/IPN93L0031) VH: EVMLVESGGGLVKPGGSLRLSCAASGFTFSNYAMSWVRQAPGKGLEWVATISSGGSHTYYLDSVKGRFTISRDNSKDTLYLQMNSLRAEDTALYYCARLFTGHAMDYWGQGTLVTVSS VL: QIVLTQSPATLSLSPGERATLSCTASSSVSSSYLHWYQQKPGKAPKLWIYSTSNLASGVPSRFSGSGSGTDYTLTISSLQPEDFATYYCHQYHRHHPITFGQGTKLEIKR	0.00209
C1_IPN009VH2-SG4GK/IPN93L0030-SK1 (antibody, human IgG4 S228P, kappa, name in Kabat numbering, V domains shown, also called IPN009VH2/IPN93L0030) VH: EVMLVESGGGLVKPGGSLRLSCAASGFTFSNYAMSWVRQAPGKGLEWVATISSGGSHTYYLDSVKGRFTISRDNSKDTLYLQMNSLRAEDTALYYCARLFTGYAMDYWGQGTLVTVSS VL: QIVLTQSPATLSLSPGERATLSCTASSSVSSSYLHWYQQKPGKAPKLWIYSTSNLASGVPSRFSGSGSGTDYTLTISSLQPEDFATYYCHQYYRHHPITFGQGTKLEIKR	0.0222

# ---- query binder ----
Dear colleague, please send me the reported koff for C1_IPN92H0026-SG4GK/IPN93L0021-SK1 (antibody, human IgG4 S228P, kappa, name in Kabat numbering, V domains shown, also called IPN92H0026/IPN93L0021) VH: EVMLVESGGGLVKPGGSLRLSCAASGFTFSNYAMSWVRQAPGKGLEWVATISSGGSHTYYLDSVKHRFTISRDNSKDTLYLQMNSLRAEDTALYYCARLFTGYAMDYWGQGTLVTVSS VL: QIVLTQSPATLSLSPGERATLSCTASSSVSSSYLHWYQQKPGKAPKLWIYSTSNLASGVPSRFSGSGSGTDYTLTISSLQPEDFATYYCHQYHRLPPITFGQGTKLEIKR when you can. 0.00149
